Biological target: human GlyT1c transporter (Homo sapiens (Human), UniProt P48067)
Sequence (P48067 whole entry): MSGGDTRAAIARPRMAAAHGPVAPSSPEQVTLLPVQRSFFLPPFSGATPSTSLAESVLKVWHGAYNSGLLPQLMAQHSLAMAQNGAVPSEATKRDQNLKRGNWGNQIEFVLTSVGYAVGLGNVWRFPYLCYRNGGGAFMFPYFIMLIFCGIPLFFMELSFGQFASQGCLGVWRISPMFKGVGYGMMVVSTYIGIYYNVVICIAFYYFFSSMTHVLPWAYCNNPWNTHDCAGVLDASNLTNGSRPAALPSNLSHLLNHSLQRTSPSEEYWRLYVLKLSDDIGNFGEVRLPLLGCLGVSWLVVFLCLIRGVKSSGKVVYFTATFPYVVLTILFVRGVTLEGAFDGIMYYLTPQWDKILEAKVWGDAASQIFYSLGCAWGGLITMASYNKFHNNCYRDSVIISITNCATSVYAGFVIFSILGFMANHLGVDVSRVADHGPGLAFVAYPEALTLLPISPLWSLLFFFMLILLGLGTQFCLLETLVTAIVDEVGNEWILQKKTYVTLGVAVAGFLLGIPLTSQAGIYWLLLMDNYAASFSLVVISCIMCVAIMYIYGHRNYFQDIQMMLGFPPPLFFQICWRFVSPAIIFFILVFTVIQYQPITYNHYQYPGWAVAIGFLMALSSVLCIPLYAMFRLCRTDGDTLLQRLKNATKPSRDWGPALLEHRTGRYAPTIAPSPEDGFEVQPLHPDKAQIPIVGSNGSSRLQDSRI
Experiment: Radioligand binding assay using recombinant CHO cell membranes expressing human GlyT1
Details: human GlyT1c-expressing CHO cell membranes; read-out: radioligand binding Kiapp
pKi: −log10 of the molar value. Where a name gives a salt, the structure may show the parent alone.
quantity.measured: pKi

Some solved entries appear below for comparison.
molecule	quantity.measured	result
NC1CCc2ccc(OCCNS(=O)(=O)CC3CC3)cc2C1Cc1ccc(Cl)cc1 (stereo not shown) [Example 128, hydrochloride]	pKi	≥ 7.00
O=S(=O)(CC1CC1)NCCOc1ccc2c(c1)C(Cc1cccc(F)c1)C(N1CCC1)CC2 (stereo not shown) [Example 139, hydrochloride]	pKi	≥ 8.00
CCOC(=O)NC1CCc2ccc(OCCNS(=O)(=O)CC3CC3)cc2C1Cc1cccc(Cl)c1 (stereo not shown) [Example 287]	pKi	≥ 5.00
N#Cc1ccc2c(c1)C(Cc1ccc(Cl)c(Cl)c1)C(N)CC2 (stereo not shown) [Example 29, trifluoroacetate]	pKi	≥ 5.00

I would be grateful if you could provide pKi for each of the following entries.
1. NC1CCc2ccc(OCCNS(=O)(=O)CC3CC3)cc2C1Cc1ccc(F)c(F)c1 (stereo not shown) [Example 131, hydrochloride]
2. CN(CCOc1ccc2c(c1)C(Cc1ccc(Cl)c(Cl)c1)C(N1CCCC1)CC2)S(=O)(=O)C1CCC1 (stereo not shown) [Example 94, hydrochloride]
3. CN(CCOc1ccc2c(c1)C(Cc1ccccc1)C(N1CCC1)CC2)S(=O)(=O)c1cnn(C)c1 (stereo not shown) [Example 112, hydrochloride]

*A*
1. ≥ 7.00
2. ≥ 7.00
3. ≥ 7.00

Taken from patent US9067871B2.
